# TARGET ENTITY: HLA-A*26:01
# METHOD SUMMARY: IEDB peptide-MHC binding, purified MHC/competitive/radioactivity; filed as Kd, often an IC50 or EC50 that approximates it; bounds were set here for any values at or beyond the usual limits of such assays
# EXPERIMENTAL PARAMETERS: source organism: SARS coronavirus Tor2
ATTRIBUTE MEASURED: Kd

VYSDVETPHL | ≥ 69.7 µM

The sequence identified as PVSAMVRMY registered its Kd at ≥ 36.7 µM

Data point: IFWRNTNPI ; Kd = ≥ 77.9 µM

Consider VYMPASWVM . Its measured Kd is ≥ 77.9 µM

* * *

# TARGET ENTITY: HLA-A*02:03
# METHOD SUMMARY: IEDB peptide-MHC binding, purified MHC/competitive/radioactivity; filed as Kd, often an IC50 or EC50 that approximates it; bounds were set here for any values at or beyond the usual limits of such assays
# EXPERIMENTAL PARAMETERS: source organism: SARS coronavirus Tor2
ATTRIBUTE MEASURED: Kd (nM)
Just the number please, in nM, no unit attached.

AIILASFSA | 176
FTLLFQLCT | 744

# sequence LIVNSVLLFL ; its Kd = 90.4

Kd reported for this sequence FLVLIMLII : 9730

AMWLLLLSI yielded Kd of 205

Value of Kd reported for the sequence KLMGHFSWWT is 213

* * *

# TARGET ENTITY: HLA-A*02:02
# METHOD SUMMARY: IEDB peptide-MHC binding, purified MHC/competitive/radioactivity; filed as Kd, often an IC50 or EC50 that approximates it; bounds were set here for any values at or beyond the usual limits of such assays
# EXPERIMENTAL PARAMETERS: source organism: Vaccinia virus WR
ATTRIBUTE MEASURED: pKd
Interpret pKd as the negative base-10 log of the concentration measured in mol/L.

Use the examples below as a reference point.
SAGFTATICL | 5.16
ILISLINSLV | 7.64

Recorded pKd (sequence IAGGVCYYL ): 7.27

Input SIDHCSSFIV . Output pKd: 6.76

Lookup result for IVVPVIDRL ; measured pKd: 6.84

Record AVANCVRNL . Reported pKd: 7.18

* * *

# TARGET ENTITY: HLA-A*33:01
# METHOD SUMMARY: IEDB peptide-MHC binding, purified MHC/competitive/radioactivity; filed as Kd, often an IC50 or EC50 that approximates it; bounds were set here for any values at or beyond the usual limits of such assays
# EXPERIMENTAL PARAMETERS: source organism: SARS coronavirus Tor2
Catalogue of Kd values
Field format: number, assumed µM, no unit text.

Check out these entries, answers already filled in.
GTSTDVVYR | 0.481
LLDSYFVVK | 12.7
LMNVITLVYK | 5.64
SLCFLLTQK | 5.56
LLFVVEVVDK | 6.08

The recorded Kd for IAQSKGLYR is 0.152

Kd for ALCTFLLNK is 6.67

* * *

pKd values by entry
# TARGET ENTITY: HLA-A*11:01
# METHOD SUMMARY: IEDB peptide-MHC binding, purified MHC/competitive/radioactivity; filed as Kd, often an IC50 or EC50 that approximates it; bounds were set here for any values at or beyond the usual limits of such assays
# EXPERIMENTAL PARAMETERS: source organism: Vaccinia virus WR
// pKd is dimensionless: -log10 of concentration (M)

AVFKDSFLR | 8.19
SSFIMRNFLR | 8.05

Value of pKd reported for the sequence IAARILSEK is 7.87

Record summary for PSAEDNYLAK : reported pKd = 8.06

// pKd lookup, sequence = TVKTNLYMK , result: 7.79

* * *

# TARGET ENTITY: HLA-A*11:01
# METHOD SUMMARY: IEDB peptide-MHC binding, purified MHC/competitive/radioactivity; filed as Kd, often an IC50 or EC50 that approximates it; bounds were set here for any values at or beyond the usual limits of such assays
# EXPERIMENTAL PARAMETERS: source organism: Vaccinia virus WR
ATTRIBUTE MEASURED: Kd

Record excerpt, results attached:
IAPGIADIR | ≥ 50.1 µM
TMCTEETKR | ≥ 77.9 µM

For DFESVTNSVY the sequence record lists Kd as ≥ 25.4 µM

Form field Kd, entry PVIVVPVIDR : ≥ 21.6 µM

* * *

Reported values of pKd for individual entries
# TARGET ENTITY: HLA-B*40:02
# METHOD SUMMARY: IEDB peptide-MHC binding, purified MHC/competitive/radioactivity; filed as Kd, often an IC50 or EC50 that approximates it; bounds were set here for any values at or beyond the usual limits of such assays
# EXPERIMENTAL PARAMETERS: source organism: SARS coronavirus Tor2
pKd: −log10 of the molar value.

SAFFGMSRIG | ≤ 4.15
VDYGVRFFFY | ≤ 4.52

Here is another sequence to look at.
pKd recorded for this sequence, DEWSVATFY , is ≤ 4.11

* * *

Documented Kd across a set of sequences
# TARGET ENTITY: HLA-A*31:01
# METHOD SUMMARY: IEDB peptide-MHC binding, purified MHC/competitive/radioactivity; filed as Kd, often an IC50 or EC50 that approximates it; bounds were set here for any values at or beyond the usual limits of such assays
# EXPERIMENTAL PARAMETERS: source organism: Vaccinia virus WR
Record the value in nM, omitting the unit from your answer.

Here's what some known entries look like.
GIFKNNDVR | 11500
PVIVVPVIDR | 13200
SSFIMRNFLR | 1.3
MQKFTILEY | 174
LSSIKSKSRR | 644
LSARNKLFK | 168
TMCTEETKR | 2980
FLDKSIHLTK | 104

# lookup: NFDYPFFRK on HLA-A*31:01, Kd = 90.2

* * *

# TARGET ENTITY: HLA-B*40:01
# METHOD SUMMARY: IEDB peptide-MHC binding, purified MHC/competitive/radioactivity; filed as Kd, often an IC50 or EC50 that approximates it; bounds were set here for any values at or beyond the usual limits of such assays
# EXPERIMENTAL PARAMETERS: source organism: SARS coronavirus Tor2
pKd: −log10 of the molar value.
ATTRIBUTE MEASURED: pKd

QELGHEDLMA | ≤ 4.57
DEWSVATFY | ≤ 4.12

Moving on to another sequence below.
pKd of SAFFGMSRIG , assay on HLA-B*40:01, is ≤ 4.35

* * *

# TARGET ENTITY: HLA-A*02:06
# METHOD SUMMARY: IEDB peptide-MHC binding, purified MHC/competitive/radioactivity; filed as Kd, often an IC50 or EC50 that approximates it; bounds were set here for any values at or beyond the usual limits of such assays
# EXPERIMENTAL PARAMETERS: source organism: Vaccinia virus WR
pKd: −log10 of the molar value.
ATTRIBUTE MEASURED: pKd

ELENKKVEYV | ≤ 4.16
TQFNFNGHT | ≤ 5.00
TVDVRNIVT | ≤ 4.27
TIESAKTKI | ≤ 4.29
DLAIKQYGDI | ≤ 4.33

Just so you know, measured pKd for TQSGALEVLM came out at 5.65

// recorded pKd for SIDHCSSFIV : 7.52

The recorded pKd for YVILKDPRIA is 5.72

* * *

Below: a set of entries, each annotated with reported Kd.
# TARGET ENTITY: HLA-A*11:01
# METHOD SUMMARY: IEDB peptide-MHC binding, purified MHC/competitive/radioactivity; filed as Kd, often an IC50 or EC50 that approximates it; bounds were set here for any values at or beyond the usual limits of such assays
# EXPERIMENTAL PARAMETERS: source organism: SARS coronavirus Tor2
# number only, unit nM dropped from output

A selection of reference data follows.
TLAVPYNMR | 3230
ALCTFLLNK | 2.74
AAISDYDYY | 1100
SLCFLLTQK | 22.7
QSLCFLLTQK | 10.8
QQLRVESSSK | 721
IAQSKGLYR | 224

Summary for this sequence, LLDSYFVVK : Kd is 47.2

* * *

# TARGET ENTITY: HLA-A*01:01
# METHOD SUMMARY: IEDB peptide-MHC binding, purified MHC/competitive/radioactivity; filed as Kd, often an IC50 or EC50 that approximates it; bounds were set here for any values at or beyond the usual limits of such assays
# EXPERIMENTAL PARAMETERS: source organism: SARS coronavirus Tor2
pKd: −log10 of the molar value.
ATTRIBUTE MEASURED: pKd

TPSGTWLTY | ≤ 4.10

Value of pKd reported for the sequence IFWRNTNPI is ≤ 4.11

The reported pKd of the sequence EYPIIGDEL was ≤ 4.11
